- tgt: Kras and SOS1 (biotin-tagged human Kras loaded with GDP, His-tagged human SOS1) (Homo sapiens, UniProt P01116, G12D)
- Construct: made in house; host or cells: E. coli (stated for Kras only)
- Sequence (P01116 1-188 isoform P01116-2 G12D): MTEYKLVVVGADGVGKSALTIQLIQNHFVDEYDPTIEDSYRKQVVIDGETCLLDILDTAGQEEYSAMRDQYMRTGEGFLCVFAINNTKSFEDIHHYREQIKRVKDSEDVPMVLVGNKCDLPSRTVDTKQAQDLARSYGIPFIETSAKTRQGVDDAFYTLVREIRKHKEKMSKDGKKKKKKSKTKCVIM
- protocol-text: Protein-protein interaction inhibition between Kras and SOS1 (KrasGl2D-SOS PPI) using AlphaScreen
- Assay type: binding
- settings: AlphaScreen; biotin-tagged human Kras loaded with GDP, His-tagged human SOS1; read-out: KRAS G12D-SOS PPI IC50
Starred links: 1 amine or outer side, 2 acyl side, 3 side chain; linkers in the order of their positions; H or OH if unused. Positions of bridges follow the written chain, without caps; N, C: chain ends. Non-standard residues stand in square brackets, D forms with d. Residues, ends and D or L forms follow the SMILES beside them. *: point of attachment. hPhe(3-Cl-4-CF3) = N[C@@H](CCc1ccc(C(F)(F)F)c(Cl)c1)C(=O)O; NMeDab(N,N-(CH2CF2CH2)) = CN[C@@H](CCN1CC(F)(F)C1)C(=O)O; X38 = CN([C@@H](Cc1cccc(OC(F)(F)F)c1)C(=O)[*:2])[*:1]; Abu(4,4,4-F3) = N[C@@H](CC(F)(F)F)C(=O)O; NMeCha = CN[C@@H](CC1CCCCC1)C(=O)O; NMeGly(cPr) = CN[C@H](C(=O)O)C1CC1; NMeD = CN[C@@H](CC(=O)O)C(=O)O; NMeL = CN[C@@H](CC(C)C)C(=O)O; NMeV = CN[C@H](C(=O)O)C(C)C; NMeA = CN[C@@H](C)C(=O)O; Piperidide = C1CCN(*)CC1; Ac5c = NC1(C(=O)O)CCCC1; Sar = CNCC(=O)O
assay-readout: IC50 (nM)
Respond numerically; units are nM and should not be typed.

1. CC[C@H](C)[C@@H]1NC(=O)[C@H](CC(C)C)N(C)C(=O)C[C@@H](C(=O)N2CCCCC2)N(C)C(=O)[C@H](C2CC2)N(C)C(=O)C2(CCCC2)NC(=O)[C@@H]2CCCN2C(=O)[C@H](CCc2ccc(C(F)(F)F)c(Cl)c2)NC(=O)CN(C)C(=O)[C@H](CC2CCCCC2)N(C)C(=O)CN(C)C(=O)CN(C)C1=O [Compound 197] ([NMeL]I[Sar][Sar][NMeCha][Sar][hPhe(3-Cl-4-CF3)]P[Ac5c][NMeGly(cPr)][NMeD]-Piperidide; lactam N-11) : 6.8
2. CC[C@H](C)[C@@H]1NC(=O)[C@H](C)N(C)C(=O)C[C@@H](C(=O)N2CCCCC2)N(C)C(=O)[C@H](C(C)C)N(C)C(=O)[C@H](CC(F)(F)F)NC(=O)[C@H](CCN2CC(F)(F)C2)N(C)C(=O)[C@H](CCc2ccc(C(F)(F)F)c(Cl)c2)NC(=O)CN(C)C(=O)[C@H](CC2CCCCC2)N(C)C(=O)CN(C)C(=O)CN(C)C1=O [Compound 1104] ([NMeA]I[Sar][Sar][NMeCha][Sar][hPhe(3-Cl-4-CF3)][NMeDab(N,N-(CH2CF2CH2))][Abu(4,4,4-F3)][NMeV][NMeD]-Piperidide; lactam N-11) : 11

# evaluate next
// returns reported IC50 for input CC[C@H](C)[C@@H]1NC(=O)[C@H](CC(C)C)N(C)C(=O)C[C@@H](C(=O)N2CCCCC2)N(C)C(=O)[C@H](C(C)C)N(C)C(=O)C2(CCCC2)NC(=O)[C@@H]2CCCN2C(=O)[C@H](CCc2ccc(C(F)(F)F)c(Cl)c2)NC(=O)CN(C)C(=O)[C@H](Cc2cccc(OC(F)(F)F)c2)N(C)C(=O)CN(C)C(=O)CN(C)C1=O [Compound 1640] ([NMeL]I[Sar][Sar][X38][Sar][hPhe(3-Cl-4-CF3)]P[Ac5c][NMeV][NMeD]-Piperidide; lactam N-11) 6.6
